test system: THRa:RXRa (NR concentration 90 nM, RXRa partner concentration 90 nM); assay: PBM binding z-score (relative to random genomic background probes); higher = stronger binding; sequences stand for … in GC…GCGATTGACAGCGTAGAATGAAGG
Think of 0.4 as a floor: if PBM binding z-score stands on it or above, it is 1; beneath it, -1.

{"sequence.data": "CCTAGTTGGTCAAGGTCACAGACGCTATAGGTAC", "group": 1}
{"sequence.data": "GCTTGTAGATCAAGGCTAAGAAAGACTAAGCTAA", "group": -1}
{"sequence.data": "GCTATTAGATGAAAGGGCAACCGAATGATTCTCG", "group": 1}
{"sequence.data": "TCTTGTGGATCAACAGGAGGTTAAGAAAGATCGA", "group": 1}
{"sequence.data": "CCGAGTAGGTTATGGGGCCTTCAGGCAACGGTGA", "group": 1}
{"sequence.data": "CCTACTGGGCAATCAGGTCATTGATATCAACGTT", "group": 1}
